System: Nrf2
ASSAY SUMMARY: Expression of Nrf2-regulated genes GCLM and NQO1 by qRT-PCR in Beas-2B cells (screen)
Format: cell-based, human
RUN PARAMETERS: Homo sapiens, BEAS-2B, 16 h, DMSO = 1 (Table 3), read-out: Relative Fold Change GCLM
Item-by-item account of fold induction at 10 µM
Please reply with the value in numeric form only.

>  <CHEM SMILES>
COc1ccc(C(=O)/C=C/c2ccc(C(F)(F)F)cc2)cc1

>  <SYSTEM TESTED>
Nrf2

>  <fold induction at 10 µM>
3.5

$$$$
>  <CHEM SMILES>
COc1ccc(C(=O)/C=C/c2ccccc2C(F)(F)F)cc1

>  <SYSTEM TESTED>
Nrf2

>  <fold induction at 10 µM>
5.4

$$$$
>  <CHEM SMILES>
COc1ccc(C(=O)/C=C/c2ccc(C(F)(F)F)cc2)c(OC)c1

>  <SYSTEM TESTED>
Nrf2

>  <fold induction at 10 µM>
5

$$$$
>  <CHEM SMILES>
COc1cc(OC)cc(C(=O)/C=C/c2ccccc2[N+](=O)[O-])c1

>  <SYSTEM TESTED>
Nrf2

>  <fold induction at 10 µM>
3.4

$$$$

Please look at the following molecule next.
Request the reported fold induction at 10 µM associated with `COc1ccc(C(=O)/C=C/c2ccccc2C(F)(F)F)c(OC)c1OC`
5.4
